Experiment: Acute toxicity (1) (oral administration)
Assay type: in vivo
Details: in vivo; mouse, oral, 7 days
PROPERTY_LABEL: LD50 at 168 h

In: Record request: LD50 at 168 h value, item CC(C(=O)C(N)=O)c1ccc(N2Cc3ccccc3C2=O)cc1 (stereo not shown)
Out: > 4000 mg/kg

All figures here come from patent US4166125A.
